Each recorded value in this set is attributed to the supplement of paper PMC10065799.

biological target: FGFR1 (UniProt P11362); experiment: phosphorylation enrichment, bacterial display (enrichment ratio); higher = better substrate or ligand; peptides without Tyr show the background
Sequence (P11362 whole entry, looked up): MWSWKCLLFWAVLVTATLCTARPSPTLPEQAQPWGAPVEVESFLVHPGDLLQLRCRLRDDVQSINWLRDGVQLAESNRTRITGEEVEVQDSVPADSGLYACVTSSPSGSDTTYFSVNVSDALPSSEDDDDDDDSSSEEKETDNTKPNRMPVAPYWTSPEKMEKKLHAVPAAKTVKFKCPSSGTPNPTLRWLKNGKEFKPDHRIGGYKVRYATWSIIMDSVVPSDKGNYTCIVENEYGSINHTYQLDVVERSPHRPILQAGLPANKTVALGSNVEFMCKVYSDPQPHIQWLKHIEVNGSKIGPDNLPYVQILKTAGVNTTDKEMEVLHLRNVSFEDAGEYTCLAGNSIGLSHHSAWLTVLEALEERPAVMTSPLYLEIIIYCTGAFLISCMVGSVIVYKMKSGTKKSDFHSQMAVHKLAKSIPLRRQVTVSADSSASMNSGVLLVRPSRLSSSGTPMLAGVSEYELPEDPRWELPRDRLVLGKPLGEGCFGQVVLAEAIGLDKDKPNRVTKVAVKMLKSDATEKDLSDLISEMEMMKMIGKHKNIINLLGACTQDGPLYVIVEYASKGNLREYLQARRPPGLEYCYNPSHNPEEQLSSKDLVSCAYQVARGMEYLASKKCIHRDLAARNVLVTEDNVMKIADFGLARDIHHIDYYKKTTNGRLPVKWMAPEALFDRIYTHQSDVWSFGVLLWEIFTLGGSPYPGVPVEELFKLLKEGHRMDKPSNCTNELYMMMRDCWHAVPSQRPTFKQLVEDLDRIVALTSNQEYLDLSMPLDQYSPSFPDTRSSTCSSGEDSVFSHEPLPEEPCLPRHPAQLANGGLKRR
1 (yes) means recorded phosphorylation enrichment is 0.7 or above; 0 (no) means it is below 0.7.

Incoming: Is reported phosphorylation enrichment greater than or equal to 0.7 here: APSHAYHGGVL [ANO1_Y981]
Outgoing: 0 (no)

Incoming: Is reported phosphorylation enrichment greater than or equal to 0.7 here: RAIELCNDKEK [OTULIN_Y244_Y244C]
Outgoing: 0 (no)

Incoming: Is reported phosphorylation enrichment greater than or equal to 0.7 here: MHLRQYKLLGG [GNAS_Y391_E392K]
Outgoing: 0 (no)

Incoming: Is reported phosphorylation enrichment greater than or equal to 0.7 here: KYLENYYDLEK [MMP3_Y41_K45E]
Outgoing: 1 (yes)

Incoming: Is reported phosphorylation enrichment greater than or equal to 0.7 here: VIGRMYDYHVL [RPF2_Y109]
Outgoing: 1 (yes)

---

Kindly supply the reported SH2 binding enrichment values for the records listed here.
target: c-Src SH2; experiment: SH2 binding enrichment of the phosphorylated peptide, bacterial display (enrichment ratio); higher = better substrate or ligand; peptides without Tyr show the background
Answer with a bare number; do not write a unit.

Incoming: Reported SH2 binding enrichment for EAIAKYDFKAT [GRB2_Y7] : what is it?
Outgoing: 0.465

Incoming: Reported SH2 binding enrichment for TKVVHYWKWIK [KLK2_Y249_R250W] : what is it?
Outgoing: 1.12

Incoming: Reported SH2 binding enrichment for VIDGKYAFKPK [GTF2E2_Y137] : what is it?
Outgoing: 0.451

Incoming: Reported SH2 binding enrichment for NKVKFYIPYMN [NCR1_Y84_D87Y] : what is it?
Outgoing: 1.51

Incoming: Reported SH2 binding enrichment for WIPNQYPIISE [NOG_Y222_I220N] : what is it?
Outgoing: 0.605

Incoming: Reported SH2 binding enrichment for YHRQLYHKCTH [F12_Y58] : what is it?
Outgoing: 1.44

Incoming: Reported SH2 binding enrichment for LLIMEYAKYGS [RET_Y806_V804M] : what is it?
Outgoing: 1.11

Incoming: Reported SH2 binding enrichment for LTTPTFGDLNH [TUBB_Y222_Y222F] : what is it?
Outgoing: 0.822

Incoming: Reported SH2 binding enrichment for PLKFLYPNIDK [STAT1_Y668_YF] : what is it?
Outgoing: 0.72

Incoming: Reported SH2 binding enrichment for KDDEKYLDVSR [MTM1_Y260_I264S] : what is it?
Outgoing: 0.532

Incoming: Reported SH2 binding enrichment for SSTASYFEAPG [RFX2_Y108] : what is it?
Outgoing: 0.567

Incoming: Reported SH2 binding enrichment for QCTSAYLLQPE [NANS_Y188_P189L] : what is it?
Outgoing: 0.473

Incoming: Reported SH2 binding enrichment for QPTPGYEVGQR [TSC2_Y1788_E1783Q] : what is it?
Outgoing: 0.572

Incoming: Reported SH2 binding enrichment for EVRAQYEEIAQ [KRT76_Y361] : what is it?
Outgoing: 22.5

Incoming: Reported SH2 binding enrichment for YSPYDYQPCLA [TNS1_Y798] : what is it?
Outgoing: 0.647

Incoming: Reported SH2 binding enrichment for EFSNQYKATIG [RAB7A_Y37_K32E] : what is it?
Outgoing: 0.316

Incoming: Reported SH2 binding enrichment for ELTTCYRKKCS [CCBE1_Y70_C75S] : what is it?
Outgoing: 1.04

Incoming: Reported SH2 binding enrichment for YECKWYIPLTD [BCR_Y756_D752E] : what is it?
Outgoing: 0.477

Incoming: Reported SH2 binding enrichment for YRIGPYQPSVP [MATR3_Y784_N787S] : what is it?
Outgoing: 0.668

Incoming: Reported SH2 binding enrichment for LDLSYYPTSSS [EMD_Y182] : what is it?
Outgoing: 1.24

Incoming: Reported SH2 binding enrichment for NMSRIYSTTKV [ACE_Y151_A154T] : what is it?
Outgoing: 0.396

Incoming: Reported SH2 binding enrichment for QNVADYMRFLM [RPL5_Y207_YF] : what is it?
Outgoing: 0.62

Incoming: Reported SH2 binding enrichment for ISDNACQYMLT [MYH7_Y162_Y162C] : what is it?
Outgoing: 0.511

Incoming: Reported SH2 binding enrichment for KLADMYGGGED [CDH1_Y876] : what is it?
Outgoing: 0.558

Incoming: Reported SH2 binding enrichment for ETAENYLGYTA [HSPA9_Y181_H184Y] : what is it?
Outgoing: 0.557

Incoming: Reported SH2 binding enrichment for LRTAVYHEILI [CREBBP_Y1450] : what is it?
Outgoing: 3.56

Incoming: Reported SH2 binding enrichment for VEDQYYRVDCY [FHL1_Y208_C209R] : what is it?
Outgoing: 0.897

Incoming: Reported SH2 binding enrichment for FAADFYKLLGN [ROR2_Y646_YF] : what is it?
Outgoing: 0.431

Incoming: Reported SH2 binding enrichment for PPDGEYFTLQI [TP53_Y327_L323P] : what is it?
Outgoing: 0.537

---

target: Grb2 SH2 (UniProt P62993); assay: SH2 binding enrichment of the phosphorylated peptide, bacterial display (enrichment ratio); higher = better substrate or ligand; peptides without Tyr show the background
Sequence (P62993 whole entry, looked up): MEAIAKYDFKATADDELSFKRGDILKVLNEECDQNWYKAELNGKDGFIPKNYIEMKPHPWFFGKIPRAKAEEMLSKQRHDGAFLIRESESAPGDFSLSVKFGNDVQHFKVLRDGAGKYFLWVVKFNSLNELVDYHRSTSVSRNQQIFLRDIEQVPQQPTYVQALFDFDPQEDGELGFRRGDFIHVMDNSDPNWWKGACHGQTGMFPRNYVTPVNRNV
Classes (SH2 binding enrichment): bin A: < 0.8; bin B: ≥ 0.8 and < 1; bin C: ≥ 1

Incoming: Using the reported SH2 binding enrichment, which band applies to RHPFFYAPELL [ALB_Y174_YF] ?
Outgoing: bin C

Incoming: Using the reported SH2 binding enrichment, which band applies to QEKKGYFEDRC [GLUL_Y336_R341C] ?
Outgoing: bin C

Incoming: Using the reported SH2 binding enrichment, which band applies to QRALLYEDTLF [UNC13D_Y56_A59T_YF] ?
Outgoing: bin A

Incoming: Using the reported SH2 binding enrichment, which band applies to TTKAKYKTPIF [PLD2_Y573_T577I_YF] ?
Outgoing: bin C

Incoming: Using the reported SH2 binding enrichment, which band applies to ANNPLYKEATP [ITGB3_Y773_S778P] ?
Outgoing: bin B

Incoming: Using the reported SH2 binding enrichment, which band applies to PATFTYDEFKK [COL8A2_Y648_YF] ?
Outgoing: bin C

Incoming: Using the reported SH2 binding enrichment, which band applies to ARAGEYGAEAL [HBA1_Y25_H21R] ?
Outgoing: bin B

Incoming: Using the reported SH2 binding enrichment, which band applies to APSHAYHGGVL [ANO1_Y981] ?
Outgoing: bin B

Incoming: Using the reported SH2 binding enrichment, which band applies to RALRHYFKLNI [ETV6_Y401_YF] ?
Outgoing: bin C

Incoming: Using the reported SH2 binding enrichment, which band applies to KGEDFYFVTCH [FHL1_Y149_C150Y_YF] ?
Outgoing: bin A

Incoming: Using the reported SH2 binding enrichment, which band applies to GLIPAYHRFIM [NMNAT1_Y64_V67F] ?
Outgoing: bin C

Incoming: Using the reported SH2 binding enrichment, which band applies to KLLPEYPGILS [DHFR2_Y163_V166I] ?
Outgoing: bin B

Incoming: Using the reported SH2 binding enrichment, which band applies to SSSGAYGGGYG [KRT19_Y61] ?
Outgoing: bin B

Incoming: Using the reported SH2 binding enrichment, which band applies to ERRLIYTSDPK [VPS13D_Y864] ?
Outgoing: bin B

Incoming: Using the reported SH2 binding enrichment, which band applies to IFGASYVPFAA [RBM47_Y541_YF] ?
Outgoing: bin B

Incoming: Using the reported SH2 binding enrichment, which band applies to FSMGCYEISLE [HMGCL_Y198_G203E_YF] ?
Outgoing: bin B

Incoming: Using the reported SH2 binding enrichment, which band applies to RSAGKYDVYFI [MECP2_Y120_L124F] ?
Outgoing: bin B

Incoming: Using the reported SH2 binding enrichment, which band applies to KYLENYYDLEK [MMP3_Y41_K45E] ?
Outgoing: bin A

Incoming: Using the reported SH2 binding enrichment, which band applies to QRIFQYIRSRF [DYRK1B_Y273_Q275R_YF] ?
Outgoing: bin A

Incoming: Using the reported SH2 binding enrichment, which band applies to YHRQLYHKCTH [F12_Y58] ?
Outgoing: bin C

Incoming: Using the reported SH2 binding enrichment, which band applies to RQSRNYLGGFA [SYK_Y47] ?
Outgoing: bin A

Incoming: Using the reported SH2 binding enrichment, which band applies to LSSETYVKSYT [F5_Y2149_M2148T] ?
Outgoing: bin B

Incoming: Using the reported SH2 binding enrichment, which band applies to RHFTGCRIELQ [INSR_Y818_Y818C] ?
Outgoing: bin B

Incoming: Using the reported SH2 binding enrichment, which band applies to WFPANYVKLLN [ITSN1_Y1132_S1137N] ?
Outgoing: bin B

Incoming: Using the reported SH2 binding enrichment, which band applies to IRTIDYRFTVW [IDS_Y497_YF] ?
Outgoing: bin B

Incoming: Using the reported SH2 binding enrichment, which band applies to KLSCSYSHLSA [C4BPA_Y470_W473L] ?
Outgoing: bin B

Incoming: Using the reported SH2 binding enrichment, which band applies to STSKTYVISQT [RBBP6_Y87_R91Q] ?
Outgoing: bin B

Incoming: Using the reported SH2 binding enrichment, which band applies to HQNGMYRLHQD [SGSH_Y89_G90R] ?
Outgoing: bin B

Incoming: Using the reported SH2 binding enrichment, which band applies to GFCSWYRGWAP [TIMP3_Y195_YF] ?
Outgoing: bin B

Incoming: Using the reported SH2 binding enrichment, which band applies to HHIDFYKKTTN [FGFR1_Y654_YF] ?
Outgoing: bin C

Incoming: Using the reported SH2 binding enrichment, which band applies to LTMAPYSSVSL [FAM81A_Y24] ?
Outgoing: bin A

Incoming: Using the reported SH2 binding enrichment, which band applies to `GGGMIYPLDLF` ?
Outgoing: bin B

Incoming: Using the reported SH2 binding enrichment, which band applies to VVKTVYSLQPS [KNSTRN_Y87_P92S] ?
Outgoing: bin A

Incoming: Using the reported SH2 binding enrichment, which band applies to HFPFQCHRQLY [F12_Y53_Y53C] ?
Outgoing: bin C

Incoming: Using the reported SH2 binding enrichment, which band applies to VVQGIYGYHHY [UFSP2_Y285] ?
Outgoing: bin C

Incoming: Using the reported SH2 binding enrichment, which band applies to LYRYGYANTSE [SI_Y1233_C1229Y] ?
Outgoing: bin C

Incoming: Using the reported SH2 binding enrichment, which band applies to PTQLPYDHKWE [KIT_Y578] ?
Outgoing: bin B

Incoming: Using the reported SH2 binding enrichment, which band applies to GAVDTYCRHNY [HLA-DRB1_Y107_A102G] ?
Outgoing: bin B

Incoming: Using the reported SH2 binding enrichment, which band applies to SVVVPYDPPEV [TP53_Y220_E221D] ?
Outgoing: bin A

Incoming: Using the reported SH2 binding enrichment, which band applies to IPPRRYFRSGV [STAMBP_Y36] ?
Outgoing: bin A

Incoming: Using the reported SH2 binding enrichment, which band applies to ILTFKYLQIPM [KIT_Y547_K550I_YF] ?
Outgoing: bin C
